Where do the numbers come from? From the supplement of paper PMC6555819.

Consider the following sequences; for each one, report its PBM binding z-score.
- Tested on: PPARg:RXRa (NR concentration 180 nM, RXRa partner concentration 90 nM)
- PROCEDURE SUMMARY: PBM binding z-score (relative to random genomic background probes); higher = stronger binding; sequences stand for … in GC…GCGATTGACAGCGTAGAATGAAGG
One number for each entry.

>>> df
                      sequence_record              measure  reading
0  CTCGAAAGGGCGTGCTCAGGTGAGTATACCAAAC  PBM binding z-score   -0.312

Report PBM binding z-score for each item below.
1. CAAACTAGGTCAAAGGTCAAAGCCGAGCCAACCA
2. ATATGGAGGTTAGGGTCATTCAGAAAGTAGGGAA
3. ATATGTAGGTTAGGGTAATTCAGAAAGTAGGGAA
4. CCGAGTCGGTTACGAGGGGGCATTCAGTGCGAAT
5. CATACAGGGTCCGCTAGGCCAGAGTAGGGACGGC

Ans:
13.1
5.01
4.75
-0.00257
0.155
